// provenance: ChEMBL document CHEMBL1777694

- Experiment Notes: Displacement of [3H]CNQX from AMPA receptor in rat brain homogenate
- Format: tissue-based

{"Smiles Entry": "CS(=O)(=O)Nn1c(=O)[nH]c2c(Cl)cccc2c1=O", "Result Modifier": ">", "IC50 (nM)": 100000}
{"Smiles Entry": "CS(=O)(=O)Nn1c(=O)[nH]c2cc(CCc3ccccc3)ccc2c1=O", "Result Modifier": "=", "IC50 (nM)": 1100}
{"Smiles Entry": "CS(=O)(=O)Nn1c(=O)[nH]c2cc(Cl)c(-n3ccnc3)cc2c1=O", "Result Modifier": "=", "IC50 (nM)": 520}
{"Smiles Entry": "Cc1ccc2c(=O)n(NS(C)(=O)=O)c(=O)[nH]c2c1", "Result Modifier": "=", "IC50 (nM)": 9700}
{"Smiles Entry": "CS(=O)(=O)Nn1c(=O)[nH]c2cc([N+](=O)[O-])ccc2c1=O", "Result Modifier": "=", "IC50 (nM)": 1200}
{"Smiles Entry": "CS(=O)(=O)Nn1c(=O)[nH]c2cc([N+](=O)[O-])c(-n3ccnc3)cc2c1=O", "Result Modifier": "=", "IC50 (nM)": 82}
{"Smiles Entry": "C=Cc1ccc2c(=O)n(NS(C)(=O)=O)c(=O)[nH]c2c1", "Result Modifier": "=", "IC50 (nM)": 1900}
{"Smiles Entry": "CS(=O)(=O)Nn1c(=O)[nH]c2cc(Cl)ccc2c1=O", "Result Modifier": "=", "IC50 (nM)": 2400}
{"Smiles Entry": "CC(C)(C)c1ccc2c(=O)n(NS(C)(=O)=O)c(=O)[nH]c2c1", "Result Modifier": "=", "IC50 (nM)": 4900}
{"Smiles Entry": "CS(=O)(=O)Nn1c(=O)[nH]c2cc(C(F)(F)F)ccc2c1=O", "Result Modifier": "=", "IC50 (nM)": 920}
{"Smiles Entry": "O=c1[nH]c2cc(Cl)ccc2c(=O)n1NS(=O)(=O)c1ccccc1", "Result Modifier": "=", "IC50 (nM)": 4900}
{"Smiles Entry": "CCS(=O)(=O)Nn1c(=O)[nH]c2cc(Cl)ccc2c1=O", "Result Modifier": "=", "IC50 (nM)": 2300}
{"Smiles Entry": "Cn1cnc(S(=O)(=O)Nn2c(=O)[nH]c3cc(Cl)ccc3c2=O)c1", "Result Modifier": "=", "IC50 (nM)": 1600}
{"Smiles Entry": "COc1ccc2c(=O)n(NS(C)(=O)=O)c(=O)[nH]c2c1", "Result Modifier": "=", "IC50 (nM)": 3700}
{"Smiles Entry": "CS(=O)(=O)Nn1c(=O)[nH]c2cccc(Cl)c2c1=O", "Result Modifier": "=", "IC50 (nM)": 29000}
{"Smiles Entry": "CS(=O)(=O)Nn1c(=O)[nH]c2cc(F)ccc2c1=O", "Result Modifier": "=", "IC50 (nM)": 8200}
{"Smiles Entry": "CS(=O)(=O)Nn1c(=O)[nH]c2cc(Br)ccc2c1=O", "Result Modifier": "=", "IC50 (nM)": 2200}
